target: SARS-CoV-2 S1-NTD (aa16-305) (SARS-CoV-2 Wuhan, UniProt P0DTC2 16-305); assay: ELISA, coated antigen, apparent EC50
pEC50: −log10 of the molar value.
The entries below come with measured pEC50 values attached.
Quantity: pEC50

Binder	Result
NRCoV2-SR03 VHH-Fc (Fc fusion, bivalent) AVQLVDSGGGLVQAGGSLRLSCAASGSIFSNNHMGWYRQAPGKQRELVAAISSGGKTNYADFAKGRFTISRDNAKNMVYLQMNSLKPEDTAVYYCNRGGWEYRSSYYIMGPHWGQGTQVTVSS	9.77
NRCoV2-SR01 VHH-Fc (Fc fusion, bivalent) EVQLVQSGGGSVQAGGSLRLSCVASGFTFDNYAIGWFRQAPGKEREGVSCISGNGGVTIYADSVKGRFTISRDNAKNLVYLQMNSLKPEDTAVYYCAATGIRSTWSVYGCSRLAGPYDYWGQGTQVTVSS	9.72
NRCoV2-SR04 VHH-Fc (Fc fusion, bivalent) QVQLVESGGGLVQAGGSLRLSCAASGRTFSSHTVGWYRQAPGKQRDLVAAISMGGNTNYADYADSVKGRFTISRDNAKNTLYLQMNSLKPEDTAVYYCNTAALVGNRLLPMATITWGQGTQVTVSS	9.77
NRCoV2-SR13 VHH-Fc (Fc fusion, bivalent) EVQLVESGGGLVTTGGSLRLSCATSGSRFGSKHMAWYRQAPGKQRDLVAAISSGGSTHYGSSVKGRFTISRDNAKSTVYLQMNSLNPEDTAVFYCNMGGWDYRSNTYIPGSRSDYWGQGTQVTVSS	9.64
